# studyTarget: Dimer of Gag-Pol polyprotein [489-587] (Human immunodeficiency virus 1, UniProt P12497)
# Construct: 489-587
# methodNotes: Protease Inhibition Assay
parameterMeasured: IC50 (nM)

Cc1cc(SC2C(=O)CC(CCc3ccc(O)cc3)(C(C)C)OC2=O)c(C(C)(C)C)cc1OS(=O)(=O)c1ccc(C#N)cc1 (configuration not stated) | 4.5
Cc1cc(SC2C(=O)CC(C)(CCc3ccc(O)cc3)OC2=O)c(C(C)(C)C)cc1OS(=O)(=O)c1nccn1C (configuration not stated) | 2
Cc1cc(SC2C(=O)CC(CCc3ccc(O)cc3)(C3CCCCC3)OC2=O)c(C(C)(C)C)cc1OS(=O)(=O)c1ccccc1 (configuration not stated) | 130
CCNS(=O)(=O)Nc1cc(C(C)(C)C)c(SC2C(=O)CC(CCc3ccc(O)cc3)(C(C)C)OC2=O)cc1C (configuration not stated) | 1.7
Cc1cc(SC2C(=O)CC(CCc3ccccc3)(C(C)C)OC2=O)c(C(C)(C)C)cc1OS(=O)(=O)c1cccnc1 (configuration not stated) | 14
Cc1cc(SC2C(=O)CC(CCc3ccc(N)cc3)(C(C)C)OC2=O)c(C(C)(C)C)cc1OS(=O)(=O)c1ccccc1-c1cccs1 (configuration not stated) | 18.5
Cc1cc(SC2C(=O)CC(CCc3ccc(O)cc3)(C3CCCCC3)OC2=O)c(C(C)(C)C)cc1OS(=O)(=O)c1ccc(C#N)cc1 (configuration not stated) | 21

* * *

# studyTarget: Dimer of Gag-Pol polyprotein [489-587] (Human immunodeficiency virus 1)
# Construct: 489-587
# methodNotes: Protease Inhibition Assay
# conditionContext: pH 6.2; 37 °C
pKi: −log10 of the molar value.
parameterMeasured: pKi

Cc1cc(SC2C(=O)CC(CCc3ccc(O)cc3)(C(C)C)OC2=O)c(C(C)(C)C)cc1NS(=O)(=O)c1ccc(C#N)cc1 (configuration not stated) | 9.39
Cc1cc(SC2C(=O)CC(CCc3ccc(O)cc3)(C(C)C)OC2=O)c(C(C)(C)C)cc1NS(=O)(=O)c1ccccc1 (configuration not stated) | 9.28
Cc1cc(SC2C(=O)CC(CCc3ccccc3)(C(C)C)OC2=O)c(C(C)(C)C)cc1NS(C)(=O)=O (configuration not stated) | 9.08
Cc1cc(SC2C(=O)CC(CCc3ccccc3)(C(C)C)OC2=O)c(C(C)(C)C)cc1NS(=O)(=O)c1cccc(C#N)c1 (configuration not stated) | 8.85
Cc1cc(SC2C(=O)CC(CCc3ccccc3)(C(C)C)OC2=O)c(C(C)(C)C)cc1NS(=O)(=O)c1ccc(C(F)(F)F)cc1 (configuration not stated) | 7.57
Cc1cc(SC2C(=O)CC(CCc3ccc(O)cc3)(C(C)C)OC2=O)c(C(C)(C)C)cc1N (configuration not stated) | 9.17
Cc1cc(SC2C(=O)CC(CCc3ccc(O)cc3)(C(C)C)OC2=O)c(C(C)(C)C)cc1NS(=O)(=O)c1cccc(C#N)c1 (configuration not stated) | 9.68

* * *

For Gag-Pol polyprotein [489-587] (Human immunodeficiency virus 1), measured log10 IC50 is reported for the entries below.
parameterMeasured: log10 IC50 (log10 of the value in nM)

Cc1cc(SC2C(=O)CC(CCc3ccc(O)cc3)(C(C)C)OC2=O)c(C(C)(C)C)cc1OS(=O)(=O)c1ccc(C#N)cc1 (stereo not given) | 0.65
Cc1cc(SC2C(=O)C[C@@](CCc3ccccc3)(C(C)C)OC2=O)c(C(C)(C)C)cc1NS(=O)(=O)c1ccc(C#N)cc1 (stereo not given in full) | 0.96
Cc1cc(SC2C(=O)CC(CCc3ccc(O)cc3)(C(C)C)OC2=O)c(C(C)(C)C)cc1OS(=O)(=O)Cn1ccnc1 (stereo not given) | 0.38
Cc1cc(SC2C(=O)CC(CCc3ccc(O)cc3)(C(C)C)OC2=O)c(C(C)(C)C)cc1NS(=O)(=O)N(C)C (stereo not given) | 0.56
Cc1cc(SC2C(=O)CC(C)(CCc3ccc(O)cc3)OC2=O)c(C(C)(C)C)cc1NS(=O)(=O)c1ccc(-c2cccs2)cc1 (stereo not given) | 0.80
Cc1cc(SC2C(=O)CC(C)(CCc3ccc(O)cc3)OC2=O)c(C(C)(C)C)cc1OS(=O)(=O)c1ccccc1 (stereo not given) | 0.99
CCNS(=O)(=O)Nc1cc(C(C)(C)C)c(SC2C(=O)CC(CCc3ccc(O)cc3)(C(C)C)OC2=O)cc1C (stereo not given) | 0.23
Cc1cc(SC2C(=O)CC(CCc3ccc(O)cc3)(C(C)C)OC2=O)c(C(C)(C)C)cc1OS(=O)(=O)c1ccccc1 (stereo not given) | 1.02
Cc1cc(SC2C(=O)CC(C)(CCc3ccc(O)cc3)OC2=O)c(C(C)(C)C)cc1NS(=O)(=O)Cn1ccnc1 (stereo not given) | 0.28
Cc1cc(SC2C(=O)CC(CCc3ccccc3)(C(C)C)OC2=O)c(C(C)(C)C)cc1NS(=O)(=O)c1ccccn1 (stereo not given) | 0.48
Cc1cc(SC2C(=O)CC(CCc3ccc(O)cc3)(C(C)C)OC2=O)c(C(C)(C)C)cc1NS(=O)(=O)c1ccc(C#N)cc1 (stereo not given) | 0.34
Cc1cc(SC2C(=O)CC(CCc3ccc(O)cc3)(C3CCCCC3)OC2=O)c(C(C)(C)C)cc1OS(=O)(=O)Cn1ccnc1 (stereo not given) | 0.90
Cc1cc(SC2C(=O)CC(CCc3ccc(O)cc3)(C(C)C)OC2=O)c(C(C)(C)C)cc1OS(=O)(=O)c1cccnc1 (stereo not given) | 0.54
Cc1cc(SC2C(=O)CC(CCc3ccccc3)(C(C)C)OC2=O)c(C(C)(C)C)cc1NS(=O)(=O)c1cccs1 (stereo not given) | 0.56
Cc1cc(SC2C(=O)CC(CCc3ccc(O)cc3)(C(C)C)OC2=O)c(C(C)(C)C)cc1NS(=O)(=O)c1ccc(C(F)(F)F)cc1 (stereo not given) | 1.26

* * *

# studyTarget: Dimer of Gag-Pol polyprotein [489-587] (Human immunodeficiency virus 1)
# Construct: 489-587
# methodNotes: Protease Inhibition Assay
# conditionContext: pH 6.2; 37 °C
# Experimental: Sensitivity of HIV-1 protease activity to protease inhibitors was determined by a peptide substrate cleavage assay. Protease products were analyzed on a reverse-phase high-pressure liquid chromatograph.
Listed below: IC50 values for each entry.
parameterMeasured: IC50 (nM)

Cc1cc(SC2C(=O)CC(CCc3ccc(O)cc3)(C(C)C)OC2=O)c(C(C)(C)C)cc1NS(=O)(=O)c1ccccc1 (stereo not drawn) | 1.8
Cc1cc(SC2C(=O)CC(CCc3ccc(O)cc3)(C(C)C)OC2=O)c(C(C)(C)C)cc1NS(=O)(=O)c1cccnc1 (stereo not drawn) | 2.6
Cc1cc(SC2C(=O)CC(C)(CCc3ccc(O)cc3)OC2=O)c(C(C)(C)C)cc1NS(=O)(=O)c1ccc(C#N)cc1 (stereo not drawn) | 2.1
Cc1cc(SC2C(=O)CC(CCc3ccc(O)cc3)(C(C)C)OC2=O)c(C(C)(C)C)cc1NS(=O)(=O)c1ccc(C#N)cc1 (stereo not drawn) | 2.2
Cc1cc(SC2C(=O)CC(CCc3ccccc3)(C(C)C)OC2=O)c(C(C)(C)C)cc1NS(=O)(=O)c1cccs1 (stereo not drawn) | 3.6
Cc1cc(SC2C(=O)CC(CCc3ccccc3)(C(C)C)OC2=O)c(C(C)(C)C)cc1N (stereo not drawn) | 3.6
Cc1cc(SC2C(=O)CC(CCc3ccc(O)cc3)(C(C)C)OC2=O)c(C(C)(C)C)cc1NS(C)(=O)=O (stereo not drawn) | 4
Cc1cc(SC2C(=O)CC(CCc3ccc(O)cc3)(C(C)C)OC2=O)c(C(C)(C)C)cc1NS(=O)(=O)c1ccc(C(F)(F)F)cc1 (stereo not drawn) | 18.3

* * *

For Gag-Pol polyprotein [489-587] (Human immunodeficiency virus 1, UniProt P04585), measured pIC50 is reported for the entries below.
pIC50: −log10 of the molar value.
parameterMeasured: pIC50

Cc1cc(SC2C(=O)CC(C)(CCc3ccc(O)cc3)OC2=O)c(C(C)(C)C)cc1OS(=O)(=O)c1ccc(F)cc1 (stereo unspecified) | 7.77
Cc1cc(SC2C(=O)CC(CCc3ccc(O)cc3)(C3CCCC3)OC2=O)c(C(C)(C)C)cc1NS(=O)(=O)c1ccccc1 (stereo unspecified) | 8.07
CCNS(=O)(=O)Oc1cc(C(C)(C)C)c(SC2C(=O)CC(CCc3ccc(N)cc3)(C(C)C)OC2=O)cc1C (stereo unspecified) | 8.37
Cc1cc(SC2C(=O)CC(CCc3ccc(N)cc3)(C(C)C)OC2=O)c(C(C)(C)C)cc1OS(=O)(=O)c1cccs1 (stereo unspecified) | 7.73
Cc1cc(SC2C(=O)CC(CCc3ccc(N)cc3)(C(C)C)OC2=O)c(C(C)(C)C)cc1OS(=O)(=O)N(C)C (stereo unspecified) | 8.41
Cc1cc(SC2C(=O)CC(CCc3ccc(O)cc3)(C3CC3)OC2=O)c(C(C)(C)C)cc1NS(=O)(=O)c1ccccc1 (stereo unspecified) | 8.44
Cc1cc(SC2C(=O)CC(CCc3ccc(O)cc3)(C(C)C)OC2=O)c(C(C)(C)C)cc1NS(=O)(=O)c1ccccn1 (stereo unspecified) | 8.59
Cc1cc(SC2C(=O)CC(CCc3ccc(O)cc3)(C(C)C)OC2=O)c(C(C)(C)C)cc1NS(=O)(=O)c1ccc(Cl)cc1 (stereo unspecified) | 8.28
Cc1cc(SC2C(=O)CC(CCc3ccc(O)cc3)(C3CCCCC3)OC2=O)c(C(C)(C)C)cc1OS(=O)(=O)c1ccc(F)cc1 (stereo unspecified) | 7.54
Cc1cc(SC2C(=O)CC(CCc3ccc(O)cc3)(C(C)C)OC2=O)c(C(C)(C)C)cc1OS(=O)(=O)c1ccccn1 (stereo unspecified) | 8.30
Cc1cc(SC2C(=O)CC(CCc3ccccc3)(C(C)C)OC2=O)c(C(C)(C)C)cc1NS(=O)(=O)Cn1ccnc1 (stereo unspecified) | 8.72
Cc1cc(SC2C(=O)CC(CCc3ccc(N)cc3)(C(C)C)OC2=O)c(C(C)(C)C)cc1OS(=O)(=O)c1ccc(C#N)cc1 (stereo unspecified) | 8.89
Cc1cc(SC2C(=O)CC(CCc3ccc(O)cc3)(C3CCCCC3)OC2=O)c(C(C)(C)C)cc1OS(=O)(=O)c1ccc(C#N)cc1 (stereo unspecified) | 7.68
Cc1cc(SC2C(=O)CC(CCc3ccc(O)cc3)(CC(C)C)OC2=O)c(C(C)(C)C)cc1OS(=O)(=O)Cn1ccnc1 (stereo unspecified) | 8.44
Cc1cc(SC2C(=O)CC(CCc3ccccc3)(C(C)C)OC2=O)c(C(C)(C)C)cc1OS(=O)(=O)Cn1ccnc1 (stereo unspecified) | 8.52
Cc1cc(SC2C(=O)CC(CCc3ccc(O)cc3)(C3CCCCC3)OC2=O)c(C(C)(C)C)cc1OS(=O)(=O)c1ccccc1 (stereo unspecified) | 6.88
CCCC1(CCc2ccc(O)cc2)CC(=O)C(Sc2cc(C)c(OS(=O)(=O)Cn3ccnc3)cc2C(C)(C)C)C(=O)O1 (stereo unspecified) | 8.66
Cc1cc(SC2C(=O)CC(CCc3ccccc3)(C(C)C)OC2=O)c(C(C)(C)C)cc1NS(=O)(=O)c1cccnc1 (stereo unspecified) | 8.46
Cc1cc(SC2C(=O)CC(CCc3ccccc3)(C(C)C)OC2=O)c(C(C)(C)C)cc1N (stereo unspecified) | 8.44
Cc1cc(SC2C(=O)CC(C)(CCc3ccc(O)cc3)OC2=O)c(C(C)(C)C)cc1NS(=O)(=O)c1ccccc1 (stereo unspecified) | 8.82
Cc1cc(SC2C(=O)CC(C)(CCc3ccc(O)cc3)OC2=O)c(C(C)(C)C)cc1NS(=O)(=O)c1ccc(C(F)(F)F)cc1 (stereo unspecified) | 7.91
Cc1cc(SC2C(=O)CC(C)(CCc3ccc(O)cc3)OC2=O)c(C(C)(C)C)cc1NS(=O)(=O)c1ccc(Cl)cc1 (stereo unspecified) | 8.46
Cc1cc(SC2C(=O)CC(CCc3ccc(O)cc3)(C(C)C)OC2=O)c(C(C)(C)C)cc1NS(=O)(=O)c1ccccc1 (stereo unspecified) | 8.74
Cc1cc(SC2C(=O)CC(C)(CCc3ccc(O)cc3)OC2=O)c(C(C)(C)C)cc1OS(=O)(=O)Cn1ccnc1 (stereo unspecified) | 8.70
Cc1cc(SC2C(=O)CC(C)(CCc3ccc(O)cc3)OC2=O)c(C(C)(C)C)cc1NS(C)(=O)=O (stereo unspecified) | 8.01
Cc1cc(SC2C(=O)CC(C)(CCc3ccc(O)cc3)OC2=O)c(C(C)(C)C)cc1NS(=O)(=O)c1ccc(C#N)cc1 (stereo unspecified) | 8.68
Cc1cc(SC2C(=O)CC(CCc3ccc(O)cc3)(C(C)C)OC2=O)c(C(C)(C)C)cc1NS(=O)(=O)c1cccnc1 (stereo unspecified) | 8.59
Cc1cc(SC2C(=O)CC(C)(CCc3ccc(O)cc3)OC2=O)c(C(C)(C)C)cc1N (stereo unspecified) | 7.89
CCNS(=O)(=O)Oc1cc(C(C)(C)C)c(SC2C(=O)CC(CCc3ccccc3)(C(C)C)OC2=O)cc1C (stereo unspecified) | 8.05
Cc1cc(SC2C(=O)CC(CCc3ccc(N)cc3)(C(C)C)OC2=O)c(C(C)(C)C)cc1OS(=O)(=O)Cn1ccnc1 (stereo unspecified) | 8.66
CCNS(=O)(=O)Nc1cc(C(C)(C)C)c(SC2C(=O)CC(CCc3ccccc3)(C(C)C)OC2=O)cc1C (stereo unspecified) | 8.48
